- System under test: T1, 4H1146-AA
- T1 chain: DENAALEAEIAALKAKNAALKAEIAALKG
- Test summary: two-hybrid library CCmax;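 also: natural log of median RNA to DNA barcode read ratio; higher means stronger binding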
- Experimental parameters: mean of both orientations
Quantity measured: interaction score
One number for each entry.

binder="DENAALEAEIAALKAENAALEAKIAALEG [4H1109-AA]" endpoint_value=1.4

# batch size: 3; output interaction score per entry
1. DENAALEAEIAALEAEIAALKAENAALEG [4H1035-AA]
2. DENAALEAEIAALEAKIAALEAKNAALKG [4H1064-AA]
3. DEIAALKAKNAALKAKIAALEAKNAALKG [4H1000-AA]

Result:
-1.34
-0.282
-1.52
